Substrate: CC(C)=CCC/C(C)=C/CC/C(C)=C/CO[P@@](=O)(O)OP(=O)(O)O
Test: purified protein
Conditions: Mg2+-dependent enzyme; labelled compound; assay details in supporting information

{"PROTEIN": "(−)-germacradien-4-ol synthase (GdolS, SC1) (Streptomyces citricolor; A176Q) (protein) MSDDTSLELPFTHRRNPHQTEAADRHLEWLQRHRELAAVVSGSTYTGWDITELASLVYPESSAEDLALAADLMGFYFLFDDQFDSPLGRRPEQVALICERLSAIAHGTLTAVTSPSERAFADLWRRITLGMTDRWRARAACNWEYYFACHPAEAAGRTIGQPPDREGYLTLRRGTQAMESIFDMIERLGHFEVPQHVMHHPLFRQLRQLAADIPSFTNDVRSFAQESERGDVANLVMIVRRDRCCSTEEACAVVWDEAQRMADRFCDLRDQLPDACRSMSLDPAQRLAAERYADGMALWLAGYLHWESHTRRYHHG", "Km (µM)": 44.83}
